From: patent US20250059282A1

# tested.target: T1, Mouse PD-L2-Fc (mouse, UniProt Q9WUL5 20-219, limits assumed)
# T1 construct: also called murine PD-L2; not shown: Fc
# T1 sequence (looked up): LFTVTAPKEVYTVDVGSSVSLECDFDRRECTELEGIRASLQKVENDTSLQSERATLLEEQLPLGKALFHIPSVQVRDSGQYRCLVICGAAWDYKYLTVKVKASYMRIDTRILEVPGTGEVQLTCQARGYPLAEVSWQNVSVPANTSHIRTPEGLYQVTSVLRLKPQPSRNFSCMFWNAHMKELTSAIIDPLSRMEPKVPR
# test.name: ForteBio, IgG, avid
measured.metric: Kd (nM)
Please respond with the number in nM and leave the unit unwritten.

// worked examples, Kd included
binder	endpoint.value
BiPDL4-24 (antibody, V domains shown, Fourth generation, IgG) VH: QVQLVESGGGVVQPGRSLRLSCAASGFTFDEYGMHWVRQAPGKGLEWVAVIGYDGLNKYYADSVKGRFTISRDNSKNTLYLQMNSLRAEDTAVYYCARAGIEYSYAYTDYWGQGTLVTVSS VL: EIVLTQSPGTLSLSPGERATLSCRASNSVVSSYLAWYQQKPGQAPRLLIYGAASRANGIPDRFSGSGSGTDFTLTISRLEPEDFAVYYCVQFGWWPPRTFGGGTKVEIK	6.77
BiPDL4-44 (antibody, V domains shown, Fourth generation, IgG) VH: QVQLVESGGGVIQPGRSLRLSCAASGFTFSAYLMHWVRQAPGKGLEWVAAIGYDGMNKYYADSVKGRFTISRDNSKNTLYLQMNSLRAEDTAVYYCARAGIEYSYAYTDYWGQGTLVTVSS VL: EIVLTQSPGTLSLSPGERATLSCRASHSVVSSYLAWYQQKPGQAPRLLIYGASSREDGIPDRFSGSGSGTDFTLTISRLEPEDFAVYYCVQFGWWPPRTFGGGTKVEIK	4.14
BiPDL4-34 (antibody, V domains shown, Fourth generation, IgG) VH: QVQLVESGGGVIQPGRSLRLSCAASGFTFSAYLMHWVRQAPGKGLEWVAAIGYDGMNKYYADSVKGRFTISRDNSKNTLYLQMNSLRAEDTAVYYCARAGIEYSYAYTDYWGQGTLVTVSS VL: EIVLTQSPGTLSLSPGERATLSCRASQFVYSSDLAWYQQKPGQAPRLLIYGASARAAGIPDRFSGSGSGTDFTLTISRLEPEDFAVYYCMQFGWWPPRTFGGGTKVEIK	5.69

Now consider the entry below.
Entry BiPDL4-14 (antibody, V domains shown, Fourth generation, IgG) VH: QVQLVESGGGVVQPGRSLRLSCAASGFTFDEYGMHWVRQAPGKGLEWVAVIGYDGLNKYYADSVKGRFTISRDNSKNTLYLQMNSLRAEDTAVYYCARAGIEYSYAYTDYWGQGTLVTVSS VL: EIVLTQSPGTLSLSPGERATLSCRASQFVYSSDLAWYQQKPGQAPRLLIYGASTRKTGIPDRFSGSGSGTDFTLTISRLEPEDFAVYYCLQFGWWPPRTFGGGTKVEIK has what Kd?
7.88
